Test: Enzymatic kinetic measurements of purified proteins with compound A as substrate
Assay type: biochemical
Settings: purified protein, compound A 0-1000 μM as substrate
Experimental: Based on the results of HPLC, representative engineered proteins were selected for protein purification. Further protein characterization, such as Km, Vmax and Kcat, was performed on the 8 engineered proteins from Table 2. Conventional Ni column affinity chromatography was used for protein purification and protein extract purity was assessed by SDS-PAGE analysis. After determining protein concentration by BCA method, enzyme activity was determined.

{"molecule": "SEQ ID NO: 42: RdpA mutant L82H + V187L + F182W + G103L (protein) MHAALSPLSQRFERIAVQPLTGVLGAEITGVDLREPLDDSTWNEILDAFHTYQVIYFPGQAITNEQHIAFSRRFGPVDPVPHLKSIEGYPEVQMIRREANESLRVIGDDWHTDSTFLDAPPAAVVMRAIDVPEHGGDTGFLSMYTAWETLSPTMQATIEGLNVVHSATRVFGSLYQAQNRRWSNTSLKVMDVDAGDRETVHPLVVTHPGSGRKGLYVNQVYCQRIEGMTDAESKPLLQFLYEHATRFDFTCRVRWKKDQVLVWDNLCTMHRAVPDYAGKFRYLTRTTVGGVRPAR", "Km (µM)": 81.3}
{"molecule": "SEQ ID NO: 38: RdpA mutant L82H + V187L + F182W + R104G (protein) MHAALSPLSQRFERIAVQPLTGVLGAEITGVDLREPLDDSTWNEILDAFHTYQVIYFPGQAITNEQHIAFSRRFGPVDPVPHLKSIEGYPEVQMIRREANESGGVIGDDWHTDSTFLDAPPAAVVMRAIDVPEHGGDTGFLSMYTAWETLSPTMQATIEGLNVVHSATRVFGSLYQAQNRRWSNTSLKVMDVDAGDRETVHPLVVTHPGSGRKGLYVNQVYCQRIEGMTDAESKPLLQFLYEHATRFDFTCRVRWKKDQVLVWDNLCTMHRAVPDYAGKFRYLTRTTVGGVRPAR", "Km (µM)": 54.6}
{"molecule": "SEQ ID NO: 54: RdpA mutant L82H + V187L + F182W + R104G + R180W (protein) MHAALSPLSQRFERIAVQPLTGVLGAEITGVDLREPLDDSTWNEILDAFHTYQVIYFPGQAITNEQHIAFSRRFGPVDPVPHLKSIEGYPEVQMIRREANESGGVIGDDWHTDSTFLDAPPAAVVMRAIDVPEHGGDTGFLSMYTAWETLSPTMQATIEGLNVVHSATRVFGSLYQAQNWRWSNTSLKVMDVDAGDRETVHPLVVTHPGSGRKGLYVNQVYCQRIEGMTDAESKPLLQFLYEHATRFDFTCRVRWKKDQVLVWDNLCTMHRAVPDYAGKFRYLTRTTVGGVRPAR", "Km (µM)": 96.9}
{"molecule": "SEQ ID NO: 122: RdpA mutant L82H + V187L + F182W + G103L + R104G + V105Y (protein) MHAALSPLSQRFERIAVQPLTGVLGAEITGVDLREPLDDSTWNEILDAFHTYQVIYFPGQAITNEQHIAFSRRFGPVDPVPHLKSIEGYPEVQMIRREANESLGYIGDDWHTDSTFLDAPPAAVVMRAIDVPEHGGDTGFLSMYTAWETLSPTMQATIEGLNVVHSATRVFGSLYQAQNRRWSNTSLKVMDVDAGDRETVHPLVVTHPGSGRKGLYVNQVYCQRIEGMTDAESKPLLQFLYEHATRFDFTCRVRWKKDQVLVWDNLCTMHRAVPDYAGKFRYLTRTTVGGVRPAR", "Km (µM)": 96.4}
{"molecule": "SEQ ID NO: 58: RdpA mutant L82H + V187L + F182W + R104G + R180M (protein) MHAALSPLSQRFERIAVQPLTGVLGAEITGVDLREPLDDSTWNEILDAFHTYQVIYFPGQAITNEQHIAFSRRFGPVDPVPHLKSIEGYPEVQMIRREANESGGVIGDDWHTDSTFLDAPPAAVVMRAIDVPEHGGDTGFLSMYTAWETLSPTMQATIEGLNVVHSATRVFGSLYQAQNMRWSNTSLKVMDVDAGDRETVHPLVVTHPGSGRKGLYVNQVYCQRIEGMTDAESKPLLQFLYEHATRFDFTCRVRWKKDQVLVWDNLCTMHRAVPDYAGKFRYLTRTTVGGVRPAR", "Km (µM)": 28.3}
